From various publications: IC50 for MAPK1(ERK2) enzyme (Homo sapiens, UniProt P28482).

Previously resolved entries follow.
[[record]]
molecule = "CCNC(=O)Nc1ccc2ncc(Nc3ccc(OC)nc3)nc2n1"
assay_value = "> 100000 nM"

[[record]]
molecule = "Cc1cnc(Nc2ccnn2C)nc1-c1cc2c3nnc(C4(C(F)F)CCC4)n3ccn2c1"
assay_value = "≤ 5 nM"

[[record]]
molecule = "Cc1cnc(Nc2ccnn2C)cc1-c1cc2n(c1)C[C@H](CF)n1c-2nnc1C(F)(F)c1ccc(F)cc1F"
assay_value = "5 to 10 nM"

[[record]]
molecule = "Cc1cnc(Nc2ccnn2C)nc1-c1cn2c(n1)C(=O)N(Cc1cccc(C(F)F)n1)[C@@H](C)C2"
assay_value = "0.7 nM"

[[record]]
molecule = "CCNC(=O)Nc1ccc2ncc(-c3ccc(OC)c(OC)c3)nc2n1"
assay_value = "939 nM"

[[record]]
molecule = "Cc1cnc(Nc2ccnn2C)nc1-c1cc2c3nnc(Cc4cccc(F)c4)n3ccn2c1"
assay_value = "≤ 5 nM"

[[record]]
molecule = "N#CC(c1ccnc(NCCc2c[nH]cn2)n1)c1nc2ccccc2s1 (stereo not shown)"
assay_value = "> 30000 nM"

[[record]]
molecule = "Cn1nccc1Nc1cc(-c2cc3n(c2)C[C@H](CF)n2c-3nnc2C(F)(F)c2ccccc2F)c(Cl)cn1"
assay_value = "> 10 nM"


Give a short answer stating reported IC50 for "Cc1cc(-c2n[nH]c3cc4c(cc23)CN(CC2CCCCC2)C(=O)N4)ccn1" .
< 500 nM

Give a short answer stating reported IC50 for "O=C(NCc1ccc(S(=O)(=O)N2CCN(C(=O)c3cccc4ccccc34)CC2)s1)c1ccc(Cl)cc1" .
> 30000 nM

Give a short answer stating reported IC50 for "Cn1nccc1Nc1cc(-c2cc3n(c2)CCCn2c-3nnc2C2(C(F)F)CCCC2)c(Cl)cn1" .
≤ 5 nM

Give a short answer stating reported IC50 for CC(c1ccccc1)c1cc2cc3c(-c4ccncc4)n[nH]c3cc2[nH]c1=O (stereo not shown) .
< 500 nM

* * *

From various publications: IC50 for MAPK1(ERK2) enzyme (Homo sapiens, UniProt P28482).
Under this convention, Fulfilled denotes IC50 strictly below 40 nM and Not fulfilled denotes IC50 at or above 40 nM.

Illustrative cases are given below, each with its answer.
[[record]]
compound = "CC[C@@H](Nc1nc(NCc2ccccn2)c2ncn(C(C)C)c2n1)[C@H](C)O"
system_name = "MAPK1(ERK2) enzyme (Homo sapiens, UniProt P28482)"
class_assignment = "Not fulfilled"

[[record]]
compound = "Cn1nccc1Nc1nccc(-c2cc3n(c2)C(=O)N([C@H](CO)c2ccc(Cl)cc2)C3)n1"
system_name = "MAPK1(ERK2) enzyme (Homo sapiens, UniProt P28482)"
class_assignment = "Not fulfilled"

[[record]]
compound = "Nc1ncc(C2CCOCC2)cc1-c1ccc(C(=O)NCc2ccnnc2)c(F)c1"
system_name = "MAPK1(ERK2) enzyme (Homo sapiens, UniProt P28482)"
class_assignment = "Not fulfilled"

[[record]]
compound = "CN(C)c1cccc(CNC(=O)c2ccc(-c3cc(C4CCOCC4)cnc3N)cc2)c1"
system_name = "MAPK1(ERK2) enzyme (Homo sapiens, UniProt P28482)"
class_assignment = "Not fulfilled"

[[record]]
compound = "COc1ccc(Oc2nccc(C(C#N)c3nc4ccccc4s3)n2)cc1 (stereo not shown)"
system_name = "MAPK1(ERK2) enzyme (Homo sapiens, UniProt P28482)"
class_assignment = "Not fulfilled"


Quick check: does "Cn1nccc1Nc1cc(-c2cc3n(c2)CCCn2c-3nnc2[C@](C)(O)C(F)(F)F)c(Cl)cn1" have IC50 under 40 nM?
Fulfilled

Quick check: does "C[C@H](CCCc1ccccc1)NC(=O)Nc1ccc2ncc(-c3cccc(CO)c3)nc2n1" have IC50 under 40 nM?
Fulfilled
